Data credit: PubChem BioAssay (NCI)

- System: HCT-116 colon
- Procedure Summary: NCI-60 one-dose screen, 48 h
- Condition Label: 10 µM
About 83,000 compounds went through this panel and 20% of them were active in at least one assay; those are over-represented in the sample as a whole. Active and inactive are the calls of the source. How the source made its calls: active means growth percent below 10; inactive means the rest.
Possible outcomes: true (1) for active, false (0) for inactive

>>> assigned_category("O=[N+]([O-])c1ccc(-c2nc(-c3ccccc3)c(-c3ccccc3)n2-c2ccc(S(=O)(=O)Nc3ncccn3)cc2)cc1")
"false (0)"
>>> assigned_category("O=C(Nc1ccc(I)cc1)Nc1nc2ccc([N+](=O)[O-])cc2s1")
"true (1)"
>>> assigned_category("COc1cc(/C=C/C(=O)c2cc(OC)c(OC)c(OC)c2)ccc1Oc1nc(Nc2ccc(F)cc2)nc(N(C)C)n1")
"true (1)"
>>> assigned_category("O=C(NO)c1ccc(CNC(=O)[C@H]2Cc3c([nH]c4ccccc34)[C@H](c3ccc(Cl)cc3)N2)cc1")
"true (1)"
>>> assigned_category("OCCCNc1oc(-c2ccccc2)nc1[P+](c1ccccc1)(c1ccccc1)c1ccccc1")
"true (1)"
>>> assigned_category("CN1CCN(Cc2ccc(NC(=O)c3cncc(C#Cc4cnc5ccc(N[C@H]6CCOC6)nn45)c3)cc2C(F)(F)F)CC1")
"true (1)"
>>> assigned_category("C/C(=C\\CC/C=C(\\C)CC/C=C(\\C)CC[C@@H](O)C(C)(C)O)CC/C=C(\\C)CC[C@@H](O)C(C)(C)O")
"false (0)"
>>> assigned_category("CCCSc1nc(NC2CC2)c(C#N)c(-c2ccc(OC)cc2)n1")
"false (0)"
>>> assigned_category("CC1=C2C(=C[C@@](C)(COCOCCCl)[C@@H]2O)C(=O)[C@](C)(O)C12CC2")
"false (0)"

----------
- Tested on: HCT-116 colon
- Procedure Summary: NCI-60 one-dose screen, 48 h
- Condition Label: 10 µM
About 83,000 compounds went through this panel and 20% of them were active in at least one assay; those are over-represented in the sample as a whole. Calls of active or inactive are those of the source. How the source made its calls: active means growth percent below 10; inactive means the rest.
Possible outcomes: 1 (active), -1 (inactive)

>>> assigned_category("COc1ccccc1C(=O)NNC(=O)CSc1nc2c(c(=O)[nH]1)CCCC2")
-1
>>> assigned_category("COc1cccc(-c2nn(-c3ccccc3)cc2-c2ccnc(NCCCNC(=O)Nc3ccc(F)cc3)c2)c1")
1
>>> assigned_category("Cc1cc(C(F)(F)F)ccc1C(=O)Nc1sc2c(c1C#N)CCC(=O)C2")
1
>>> assigned_category("CC(=O)Nc1nc(-c2ccc(N3CCN(C)CC3)c(NS(=O)(=O)c3ccc(C(F)(F)F)cc3)c2)cs1")
1
>>> assigned_category("Cc1cc(=O)oc2cc(OCCCCOc3ccc(/C=C/C(=O)Nc4ccc(F)c(Cl)c4)cc3)ccc12")
-1
>>> assigned_category("O=C(/C=C/Nc1ccc(F)cc1F)c1ccc2c(c1)Nc1ccccc1S2")
-1
>>> assigned_category("c1ccc(C(=C(c2ccc(OCCN3CCCCC3)cc2)c2ccc(OCCN3CCCCC3)cc2)C2CCCC2)cc1")
1
>>> assigned_category("Nc1nc2c(F)c(F)c(F)c(F)c2s1")
-1
>>> assigned_category("O=C(Nc1cc(Cl)cc(Cl)c1)Nc1cc(Cl)cc(Cl)c1")
1
>>> assigned_category("COc1cc(/C=C/C(=O)c2ccc(NC(=O)CN3C(=O)NC(C)(c4ccccc4)C3=O)cc2)cc(OC)c1OC (stereo unspecified)")
1
>>> assigned_category("CC[C@]12C=CCN3CC[C@@]4(c5cc(C#CCNc6ccc(C)c(Nc7nccc(-c8cccnc8)n7)c6)c(OC)cc5N(C)[C@H]4[C@@](O)(C(=O)OC)[C@@H]1OC(C)=O)C32 (stereo partly specified)")
-1
>>> assigned_category("C/C(=N\\N=C\\c1ccc(N(C)C)cc1)c1ccc2c(c1)Nc1ccccc1S2")
-1
>>> assigned_category("Cc1ccc(-c2cc(C(=O)N=Nc3c(O)[nH]c4ccc(Br)cc34)c3ccccc3n2)cc1")
-1
>>> assigned_category("COc1cc(/C=C/C(=O)c2ccc(NC(=O)CSc3nnc(-c4c[nH]c5ccccc45)n3-c3ccccc3)cc2)cc(OC)c1OC")
1
>>> assigned_category("CC1(C)CC[C@]2(C(=O)N3CCOCC3)CC[C@]3(C)C(=CC[C@@H]4[C@@]5(C)CC[C@H](NCO)C(C)(C)[C@@H]5CC[C@]43C)[C@H]2C1")
1
>>> assigned_category("O=C(NCCCCCCCCCC[P+](c1ccccc1)(c1ccccc1)c1ccccc1)c1ccc(-n2nc(-c3ccccc3O)nc2-c2ccccc2O)cc1")
1
>>> assigned_category("CC(=O)Oc1ccccc1C(=O)Oc1ccc(C(=O)/C=C/c2ccncc2)cc1")
1
>>> assigned_category("CC(=O)Nc1ccc(-c2cn(-c3cccc(C(=O)Nc4ccc(Cl)c(C(F)(F)F)c4)c3)nn2)cn1")
1
>>> assigned_category("COc1cccc2nc(Nc3cccc(NC(=O)c4ccc(CN5CCCN(C)CC5)c(C(F)(F)F)c4)c3)ccc12")
1
>>> assigned_category("O=C(CSc1ccc(-c2ccc(Cl)cc2)nn1)Nc1ccc(Cl)c(C(F)(F)F)c1")
-1
>>> assigned_category("COC[C@@H](CC(C)C)N=C1N/C(=C\\c2ccc3ncsc3c2)C(=O)N1C")
-1
>>> assigned_category("OCCNc1oc(-c2ccccc2)nc1[P+](c1ccccc1)(c1ccccc1)c1ccccc1")
1
>>> assigned_category("COc1ccc(CN2[C@@H](C(=O)NCc3ccc(C(=O)NO)cc3)Cc3c([nH]c4ccccc34)[C@@H]2C)cc1")
1
>>> assigned_category("COc1ccc(-c2cc(-c3cc(C(=O)c4ccccc4)n4ccc(C)cc34)nc(N)c2C#N)cc1")
-1
>>> assigned_category("O=c1oc2ccccc2cc1-c1csc(N=Nc2c(O)[nH]c3ccc(Br)cc23)n1")
-1
>>> assigned_category("COc1ccc(C2NC(=S)NC(C)=C2C(=O)OC(C)C)cc1OC (stereo unspecified)")
-1
>>> assigned_category("CCOC(=O)C1NN(c2ccc(S(N)(=O)=O)cc2)c2nc3nc(-c4cccs4)cc(-c4cccs4)c3c(=O)n21 (stereo unspecified)")
-1
>>> assigned_category("Clc1ccc(/C=N/Nc2ncnc3sc4c(c23)CCN(Cc2ccccc2)C4)cc1")
1
>>> assigned_category("O=C1CCC(N2Cc3c(NCc4ccc(-c5ccccc5)cc4)cccc3C2=O)C(=O)N1 (stereo unspecified)")
-1
>>> assigned_category("O=C(NO)c1ccc(Cn2ccc3c(NCc4ccccc4)ncnc32)cc1")
1
>>> assigned_category("O/N=C(\\CSc1nnc(-c2c[nH]c3ccccc23)n1-c1ccccc1)c1ccc(Cl)cc1")
1
>>> assigned_category("C/C(=N\\N=C\\c1ccc(Cl)c([N+](=O)[O-])c1)c1ccc2c(c1)Nc1ccccc1S2")
-1
>>> assigned_category("CCCn1c(=O)c2[nH]c(-c3ccc(OCc4nc5ccc(F)cc5[nH]4)cc3)nc2n(CCC)c1=O")
1
>>> assigned_category("C=CCn1c(SCC(=O)Nc2ccc(C(=O)/C=C/c3ccccc3)cc2)nnc1-c1c[nH]c2ccccc12")
1
>>> assigned_category("O=C(c1ccccc1)n1ccc(-c2cc3cc(Br)ccc3oc2=O)n1")
-1
>>> assigned_category("CN1CCc2c(sc3ncnc(N/N=C/c4cn(-c5ccccc5)nc4-c4ccc(Br)cc4)c23)C1")
1

----------
- System: A498 renal
- Procedure Summary: NCI-60 one-dose screen, 48 h (100 = growth as untreated, 0 = no growth, -100 = all killed)
- Condition Label: 10 µM
About 83,000 compounds went through this panel and 20% of them were active in at least one assay; those are over-represented in the sample as a whole.
Observed Property: growth (%)

>>> assay_result("Cc1ccc(-c2cc(-c3cc4ccccc4nc3Cl)[nH]c(=S)n2)cc1")
79.5
>>> assay_result("CCOc1ccc(/C=N/NC(=O)Cn2nc(Cc3ccccc3)c3onc(C)c3c2=O)cc1")
-6.43
>>> assay_result("O=C(NCCCCC(c1ccc(F)cc1)c1ccc(F)cc1)NCCCc1cccnc1")
84.2
>>> assay_result("COc1cccc(COc2ccc(/C=C3\\Oc4cc(O)ccc4C3=O)cc2)c1")
131
>>> assay_result("COc1ccccc1[C@H]1C(C(=O)c2ccc(Cl)cc2)C2(N[C@@H]1c1ccccc1)C(=O)Nc1ccc(Cl)cc12 (stereo partly drawn)")
13.1
>>> assay_result("CN1CCN(Cc2ccc(NC(=O)c3cncc(C#Cc4cnc5ccc(N[C@@H]6CCOC6)nn45)c3)cc2C(F)(F)F)CC1")
-97.6
>>> assay_result("C#CCNC(=O)CCC(=O)OC[C@]12CC[C@@H](C(=C)C)[C@@H]1C1CC[C@@H]3[C@@]4(C)CCCNC(C)(C)[C@@H]4CC[C@@]3(C)[C@]1(C)CC2 (stereo partly drawn)")
68.5
>>> assay_result("Cc1ccc(CSc2nc(-c3ccc(F)cc3)c(C#N)c(=O)[nH]2)cc1")
99.3
